# measurement description: Solubility of the peptides in water
# Type: physicochemical
# assay setup: determined in water
Non-standard residues stand in square brackets, D forms with d. Residues, ends and D or L forms follow the SMILES beside them. Bip = N[C@@H](Cc1ccc(-c2ccccc2)cc1)C(=O)O; dBip = N[C@H](Cc1ccc(-c2ccccc2)cc1)C(=O)O
Please provide measured solubility for the entries that follow.
Hi! Could you send only the number? It should be in mg/mL, unit omitted.

Field request: solubility | item: C[C@H](O)[C@@H](NC(=O)[C@H](N)Cc1ccc(-c2ccccc2)cc1)C(=O)N[C@H](CO)C(=O)N[C@H](CCC(=O)O)C(=O)N[C@H](Cc1ccc(O)cc1)C(=O)N[C@H](CCC(=O)O)C(=O)N[C@H](C)C(=O)N[C@@H](CCCCN)C(=O)O [Peptide 213.25, (bip)tseyeaK] (H-[dBip][dT][dS][dE][dY][dE][dA]K-OH; N-terminus and C-terminus assumed)
6

Field request: solubility | item: CC(C)C[C@@H](NC(=O)[C@@H](CO)NC(=O)[C@@H](CCC(=O)O)NC(=O)[C@@H](Cc1ccc(O)cc1)NC(=O)[C@@H](CCC(=O)O)NC(=O)[C@@H](CO)NC(=O)[C@H](NC(=O)[C@H](N)Cc1ccc(-c2ccccc2)cc1)[C@H](C)O)C(=O)N[C@@H](CCCCN)C(=O)N[C@@H](CCCCN)C(=O)O [Peptide 213.24, (bip)tseyeslKK] (H-[dBip][dT][dS][dE][dY][dE][dS][dL]KK-OH; N-terminus and C-terminus assumed)
23.5

Field request: solubility | item: CC(C)C[C@@H](NC(=O)[C@@H](C)NC(=O)[C@@H](CCC(=O)O)NC(=O)[C@@H](Cc1ccc(O)cc1)NC(=O)[C@@H](CCC(=O)O)NC(=O)[C@@H](CO)NC(=O)[C@H](NC(=O)[C@@H](N)Cc1ccc(-c2ccccc2)cc1)[C@H](C)O)C(=O)N[C@@H](CCCCN)C(=O)N[C@@H](CCCCN)C(=O)O [Peptide 213.27, (Bip)tseyealKK] (H-[Bip][dT][dS][dE][dY][dE][dA][dL]KK-OH; N-terminus and C-terminus assumed)
23

---

# measurement description: Solubility of the peptides in water
# Type: physicochemical
# assay setup: determined in water
Non-standard residues stand in square brackets, D forms with d. Residues, ends and D or L forms follow the SMILES beside them. dBip = N[C@H](Cc1ccc(-c2ccccc2)cc1)C(=O)O
measurement name: solubility (mg/mL)
Hi! Could you send only the number? It should be in mg/mL, unit omitted.

Field request: solubility | item: CC(C)C[C@H](NC(=O)[C@@H](C)NC(=O)[C@@H](CCC(=O)O)NC(=O)[C@@H](Cc1ccc(O)cc1)NC(=O)[C@@H](CCC(=O)O)NC(=O)[C@@H](CO)NC(=O)[C@H](NC(=O)[C@H](N)Cc1ccc(-c2ccccc2)cc1)[C@H](C)O)C(=O)N[C@@H](CCCCN)C(=O)N[C@@H](CCCCN)C(=O)O [Peptide 213.28, (bip)tseyeaLKK] (H-[dBip][dT][dS][dE][dY][dE][dA]LKK-OH; N-terminus and C-terminus assumed)
20

Field request: solubility | item: CC(C)C[C@@H](NC(=O)CNC(=O)[C@@H](CCC(=O)O)NC(=O)[C@@H](Cc1ccc(O)cc1)NC(=O)[C@@H](CCC(=O)O)NC(=O)[C@@H](CO)NC(=O)[C@H](NC(=O)[C@H](N)Cc1ccc(-c2ccccc2)cc1)[C@H](C)O)C(=O)N[C@@H](CCCCN)C(=O)O [Peptide 213.20, (bip)tseyeglK] (H-[dBip][dT][dS][dE][dY][dE]G[dL]K-OH; N-terminus and C-terminus assumed)
1.15

Field request: solubility | item: CC(C)C[C@@H](NC(=O)[C@@H](C)NC(=O)[C@@H](CCC(=O)O)NC(=O)[C@@H](Cc1ccc(O)cc1)NC(=O)[C@@H](CCC(=O)O)NC(=O)[C@@H](CO)NC(=O)[C@H](NC(=O)[C@H](N)Cc1ccc(-c2ccccc2)cc1)[C@H](C)O)C(=O)N[C@@H](CCCCN)C(=O)N[C@@H](CCCCN)C(=O)O [Peptide 213.21, (bip)tseyealKK] (H-[dBip][dT][dS][dE][dY][dE][dA][dL]KK-OH; N-terminus and C-terminus assumed)
24.5
